# assayNotes: Hepatic metabolic stability (hepatocyte clearance) assay, substrate depletion
# Format: in vitro ADME, human
# protocolConditions: both sexes, human, hepatocytes; hepatocyte time course; NS = slope not significant; read-out: Linear Regression Results, Best-Fit Values, Clearance
observable: hepatocyte CLint at 1 μM (µL/min/1e6 cells)
Express it in µL/min/1e6 cells; write the number only.

compound	measurementUnits	reported
OCC(F)(F)C(F)(F)C(F)(F)C(F)(F)C(F)(F)C(F)(F)C(F)(F)C(F)(F)CO [1H,1H,10H,10H-Perfluorodecane-1,10-diol]	µL/min/1e6 cells	56.6

Could you share which hepatocyte CLint at 1 μM value was measured for NC(=O)C(F)(F)C(F)(F)C(F)(F)C(F)(F)F [Nonafluoropentanamide] ?
34.9

Could you share which hepatocyte CLint at 1 μM value was measured for NC(=O)C(F)(F)C(F)(F)C(F)(F)F [Heptafluorobutyramide] ?
19.9

Could you share which hepatocyte CLint at 1 μM value was measured for NC(=O)C(F)(F)C(F)(F)C(F)(F)C(F)(F)C(N)=O [Octafluoroadipamide] ?
5.29

Could you share which hepatocyte CLint at 1 μM value was measured for OCC(F)(F)C(F)(F)C(F)(F)C(F)(F)C(F)(F)C(F)(F)CO [1H,1H,8H,8H-Perfluorooctane-1,8-diol] ?
22.8

Could you share which hepatocyte CLint at 1 μM value was measured for OCCC(F)(F)C(F)(F)C(F)(F)C(F)(F)F [4:2 Fluorotelomer alcohol] ?
45.6

Could you share which hepatocyte CLint at 1 μM value was measured for Cc1ccc(S(=O)(=O)OCC(F)(F)C(F)(F)C(F)(F)C(F)(F)C(F)(F)C(F)F)cc1 ?
31
